- SYSTEM_TESTED: human recombinant 5-HT2A receptor (Homo sapiens (Human), UniProt P28223)
- ASSAY_METHOD_TEXT: Determination of Ki value at 5-HT2A receptor ([3H]-Ketanserine radioligand binding)
Counter-ions that a name gives are not always drawn.

| COMPOUND | Ki |
| --- | --- |
| COc1ccc2c(c1)c(CN1CCN(C)CC1)cn2S(=O)(=O)c1ccc(F)cc1 [Compound 2, dihydrochloride] | > 10 µM |
